Exercise: state measured Ki for each of the molecules provided.
system: UniProt P14780
Sequence (P14780 whole entry): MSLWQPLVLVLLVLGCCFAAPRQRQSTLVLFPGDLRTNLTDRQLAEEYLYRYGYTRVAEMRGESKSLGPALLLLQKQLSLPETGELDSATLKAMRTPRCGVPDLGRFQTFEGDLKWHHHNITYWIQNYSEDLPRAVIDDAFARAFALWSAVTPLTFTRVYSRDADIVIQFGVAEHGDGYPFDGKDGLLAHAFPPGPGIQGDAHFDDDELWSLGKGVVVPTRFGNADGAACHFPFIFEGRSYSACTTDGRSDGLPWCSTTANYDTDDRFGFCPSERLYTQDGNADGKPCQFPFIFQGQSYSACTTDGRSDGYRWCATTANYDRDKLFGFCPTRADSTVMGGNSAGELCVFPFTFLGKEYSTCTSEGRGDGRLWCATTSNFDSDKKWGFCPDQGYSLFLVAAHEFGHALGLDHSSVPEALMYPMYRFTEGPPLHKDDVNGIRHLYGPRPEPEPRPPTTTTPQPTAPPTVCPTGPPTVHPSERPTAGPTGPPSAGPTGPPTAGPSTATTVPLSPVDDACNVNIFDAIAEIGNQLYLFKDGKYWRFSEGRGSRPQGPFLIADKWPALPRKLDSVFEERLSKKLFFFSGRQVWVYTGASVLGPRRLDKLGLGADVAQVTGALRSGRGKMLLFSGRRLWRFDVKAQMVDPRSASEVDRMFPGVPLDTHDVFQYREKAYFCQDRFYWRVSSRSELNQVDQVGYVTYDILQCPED
test_details: Inhibition of recombinant human matrix metalloprotease-9
Answers are plain numbers, in nM.

Hey, can you go through the list below and give me Ki for every item?
1. O=C(NO)[C@H]1[C@@H](O)[C@H](O)[C@@H](O)CN1S(=O)(=O)c1ccc(OCc2ccccc2)cc1
2. CCOCCOc1ccc(S(=O)(=O)N2C[C@H](O)[C@@H](O)[C@H](O)[C@@H]2C(=O)NO)cc1
3. O=C(NO)[C@H]1[C@@H](O)[C@H](O)[C@@H](O)CN1S(=O)(=O)c1ccc(OC2CCCCC2)cc1

1: 6.1; 2: 64; 3: 0.93

====

system: Disintegrin and metalloproteinase domain-containing protein 17 (Homo sapiens)
test_details: Inhibition of recombinant human TNF-alpha converting enzyme
readout_type: Ki

# query: Ki of entry O=C(NO)[C@H]1[C@@H](O)[C@H](O)[C@@H](O)CN1S(=O)(=O)c1ccc(Oc2ccccc2)cc1
2.3 nM

====

system: Disintegrin and metalloproteinase domain-containing protein 17 (Homo sapiens, UniProt P78536)
Sequence (P78536 whole entry, the tested form may be a part): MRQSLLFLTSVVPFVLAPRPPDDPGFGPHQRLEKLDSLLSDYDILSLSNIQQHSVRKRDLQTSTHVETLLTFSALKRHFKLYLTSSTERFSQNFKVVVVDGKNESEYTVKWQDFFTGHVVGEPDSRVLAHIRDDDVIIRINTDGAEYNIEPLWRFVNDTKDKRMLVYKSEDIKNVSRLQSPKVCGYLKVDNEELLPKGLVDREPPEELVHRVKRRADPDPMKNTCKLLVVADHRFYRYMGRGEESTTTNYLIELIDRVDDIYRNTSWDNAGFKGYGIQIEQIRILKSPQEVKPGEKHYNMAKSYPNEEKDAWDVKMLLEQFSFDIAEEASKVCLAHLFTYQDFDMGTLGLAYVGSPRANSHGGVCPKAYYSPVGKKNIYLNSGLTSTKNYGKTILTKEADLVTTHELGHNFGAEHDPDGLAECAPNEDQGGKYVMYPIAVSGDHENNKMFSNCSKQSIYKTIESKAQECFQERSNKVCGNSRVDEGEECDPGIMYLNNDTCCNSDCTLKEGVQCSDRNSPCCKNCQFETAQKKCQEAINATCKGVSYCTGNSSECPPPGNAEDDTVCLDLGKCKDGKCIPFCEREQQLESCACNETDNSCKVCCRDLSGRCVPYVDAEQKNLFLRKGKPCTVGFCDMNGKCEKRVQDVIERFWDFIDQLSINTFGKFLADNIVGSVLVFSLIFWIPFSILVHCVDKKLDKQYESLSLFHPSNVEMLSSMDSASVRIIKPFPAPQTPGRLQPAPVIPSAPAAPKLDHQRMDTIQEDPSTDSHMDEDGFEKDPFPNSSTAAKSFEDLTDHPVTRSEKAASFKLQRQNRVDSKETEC
test_details: Inhibition of recombinant human TNF-alpha converting enzyme (TACE)
Please respond with reported log10 Ki for every item in the list.
Could you please treat all values as log10 of Ki in µM?

Some solved entries appear below for comparison.
COc1ccc(S(=O)(=O)N2C[C@@H](O)[C@H](O)[C@@H](O)[C@@H]2C(=O)NO)cc1 -0.47
COc1ccc(S(=O)(=O)N2C[C@H](O)[C@@H](O)[C@@H](O)[C@@H]2C(=O)NO)cc1 -1.15
COc1ccc(S(=O)(=O)N2C[C@H](O)[C@H](O)[C@@H](O)[C@@H]2C(=O)NO)cc1 -0.29
O=C(NO)[C@H]1[C@@H](O)[C@H](O)[C@@H](O)CN1S(=O)(=O)c1ccc(OC2CCCCC2)cc1 -1.17
O=C(NO)[C@H]1[C@@H](O)[C@H](O)[C@@H](O)CN1S(=O)(=O)c1ccc(OCc2ccccc2)cc1 -2.80
COc1ccc(S(=O)(=O)N2C[C@H](O)[C@@H](O)[C@H](O)[C@@H]2C(=O)NO)cc1 -1.92

Turning to the following molecule.
# lookup: log10 Ki of CCOCCOc1ccc(S(=O)(=O)N2C[C@H](O)[C@@H](O)[C@H](O)[C@@H]2C(=O)NO)cc1
-2.06

====

Exercise: state measured pKi for each of the compounds provided.
system: Stromelysin-1 (Homo sapiens)
Sequence (P08254 whole entry): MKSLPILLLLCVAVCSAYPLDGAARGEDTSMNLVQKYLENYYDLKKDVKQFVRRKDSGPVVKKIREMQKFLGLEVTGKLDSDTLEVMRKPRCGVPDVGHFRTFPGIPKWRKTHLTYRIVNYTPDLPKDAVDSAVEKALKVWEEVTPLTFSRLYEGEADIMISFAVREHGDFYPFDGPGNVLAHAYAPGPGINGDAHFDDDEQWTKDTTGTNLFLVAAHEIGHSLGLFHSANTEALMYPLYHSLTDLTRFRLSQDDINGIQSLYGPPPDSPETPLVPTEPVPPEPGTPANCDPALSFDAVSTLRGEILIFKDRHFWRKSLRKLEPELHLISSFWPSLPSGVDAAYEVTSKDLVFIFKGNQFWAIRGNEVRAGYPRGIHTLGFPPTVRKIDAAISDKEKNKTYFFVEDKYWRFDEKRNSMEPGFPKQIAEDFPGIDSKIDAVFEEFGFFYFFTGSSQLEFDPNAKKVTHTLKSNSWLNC
test_details: Inhibition of recombinant human matrix metalloprotease-3
One number for each entry, as −log10 of the molar value.

Here's what some known entries look like.
O=C(NO)[C@H]1[C@@H](O)[C@H](O)[C@@H](O)CN1S(=O)(=O)c1ccc(OCc2ccccc2)cc1 8.59
O=C(NO)[C@H]1[C@@H](O)[C@H](O)[C@@H](O)CN1S(=O)(=O)c1ccc(OC2CCCCC2)cc1 8.74
O=C(NO)[C@H]1[C@@H](O)[C@H](O)[C@@H](O)CN1S(=O)(=O)c1ccc(Oc2ccccc2)cc1 9.29

Which pKi is reported for this compound? CCOCCOc1ccc(S(=O)(=O)N2C[C@H](O)[C@@H](O)[C@H](O)[C@@H]2C(=O)NO)cc1
7.38

====

system: Interstitial collagenase (Homo sapiens)
Sequence (P03956 whole entry): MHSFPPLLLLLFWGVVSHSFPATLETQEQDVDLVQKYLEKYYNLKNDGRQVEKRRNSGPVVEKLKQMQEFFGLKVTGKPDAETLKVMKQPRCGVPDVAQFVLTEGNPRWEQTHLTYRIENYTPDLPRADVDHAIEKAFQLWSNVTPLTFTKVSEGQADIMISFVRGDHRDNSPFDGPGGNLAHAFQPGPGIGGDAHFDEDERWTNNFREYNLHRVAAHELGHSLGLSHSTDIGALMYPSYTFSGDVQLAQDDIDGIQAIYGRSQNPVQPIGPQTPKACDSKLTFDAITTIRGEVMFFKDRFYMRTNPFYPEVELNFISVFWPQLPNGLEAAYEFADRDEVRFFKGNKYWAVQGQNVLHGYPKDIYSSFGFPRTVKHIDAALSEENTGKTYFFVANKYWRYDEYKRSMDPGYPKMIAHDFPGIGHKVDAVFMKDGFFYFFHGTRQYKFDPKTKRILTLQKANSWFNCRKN
test_details: Inhibition of recombinant human matrix metalloprotease-1
readout_type: pKi
Give bare numbers, as −log10 of the molar value.

O=C(NO)[C@H]1[C@@H](O)[C@H](O)[C@@H](O)CN1S(=O)(=O)c1ccc(Oc2ccccc2)cc1 8.10
O=C(NO)[C@H]1[C@@H](O)[C@H](O)[C@@H](O)CN1S(=O)(=O)c1ccc(OCc2ccccc2)cc1 6.07
COc1ccc(S(=O)(=O)N2C[C@H](O)[C@@H](O)[C@H](O)[C@@H]2C(=O)NO)cc1 7.60
COc1ccc(S(=O)(=O)N2C[C@@H](O)[C@H](O)[C@@H](O)[C@@H]2C(=O)NO)cc1 6.35

Would you kindly look at the next entry?
Give pKi (Interstitial collagenase (Homo sapiens)) of the following molecule: O=C(NO)[C@H]1[C@@H](O)[C@H](O)[C@@H](O)CN1S(=O)(=O)c1ccc(OC2CCCCC2)cc1
7.00
